The following molecules are listed with their measured ΔTm at 10 µM values.
target: GSK3B (Homo sapiens); test: DSF; type: binding; design: purchased in-house DSF panel (SGC Frankfurt); conditions: 10 μM compound
Sequence (P49841 35-386): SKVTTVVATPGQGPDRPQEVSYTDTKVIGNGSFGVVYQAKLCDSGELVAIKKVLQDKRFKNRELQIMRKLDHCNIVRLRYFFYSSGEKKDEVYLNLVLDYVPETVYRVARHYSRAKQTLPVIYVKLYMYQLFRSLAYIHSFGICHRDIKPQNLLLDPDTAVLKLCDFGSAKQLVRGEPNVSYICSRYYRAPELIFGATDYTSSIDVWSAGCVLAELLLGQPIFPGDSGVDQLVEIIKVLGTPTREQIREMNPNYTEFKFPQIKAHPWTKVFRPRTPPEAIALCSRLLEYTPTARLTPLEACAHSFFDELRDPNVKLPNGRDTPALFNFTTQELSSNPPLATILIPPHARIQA
The response must be a number in °C with no trailing unit.

As a guide, the following entries are already answered.
>>> print(df.to_string())
                                   molecule          testedtarget  recordedendpoint  unittag  testvalue
0  CC(C)(C)OC(=O)NCCCCCNc1ncc(Cl)c(Nc2cc(C3CC3)n[nH]2)n1 [13c]  GSK3B (Homo sapiens)      ΔTm at 10 µM       °C        5.9
1  CC(C)(C)OC(=O)NCCc1cccc(Nc2nccc(Nc3cc(C4CC4)n[nH]3)n2)c1 [11b]  GSK3B (Homo sapiens)      ΔTm at 10 µM       °C        7.2
2  COC(=O)c1cc(Nc2nc(NCCOCCNC(=O)OC(C)(C)C)ncc2Cl)[nH]n1 [22d]  GSK3B (Homo sapiens)      ΔTm at 10 µM       °C        2.1
3  CC(C)(C)OC(=O)NCCCCCNc1nccc(Nc2cc(C3CC3)[nH]n2)n1 [11c]  GSK3B (Homo sapiens)      ΔTm at 10 µM       °C        7.1
4  CC(C)c1cc(Nc2ccnc(Nc3ccc(CCNC(=O)OC(C)(C)C)cc3)n2)[nH]n1 [39a]  GSK3B (Homo sapiens)      ΔTm at 10 µM       °C          7

Moving on to the next molecule.
Q: Would you mind telling me what ΔTm at 10 µM value was observed for CC(C)(C)OC(=O)NCCOCCNc1nccc(Nc2cc(C3CC3)n[nH]2)n1 [11d] ?
Ans: 5.9

###

target: CDKL1 (Homo sapiens); construct: purchased in-house DSF panel (SGC Frankfurt); assay: DSF; type: binding
Sequence (Q00532 1-303): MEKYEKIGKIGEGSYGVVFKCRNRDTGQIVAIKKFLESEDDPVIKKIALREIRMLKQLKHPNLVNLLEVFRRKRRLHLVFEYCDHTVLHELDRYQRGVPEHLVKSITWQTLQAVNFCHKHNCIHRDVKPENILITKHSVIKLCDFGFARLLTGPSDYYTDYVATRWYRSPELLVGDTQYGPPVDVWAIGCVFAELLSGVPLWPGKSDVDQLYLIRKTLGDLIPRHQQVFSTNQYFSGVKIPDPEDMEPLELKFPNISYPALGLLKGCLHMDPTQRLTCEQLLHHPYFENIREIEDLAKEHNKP
recordedEndpoint: ΔTm CDKL1 (°C)
Supply the numeric figure in °C, leaving out any unit text.

# example entries with known answers
                                   compound  recordedendpoint  unittag  testvalue
0  COC(=O)c1cc(Nc2ccnc(NCc3ccc(NC(=O)OC(C)(C)C)cc3)n2)[nH]n1 [21i]         ΔTm CDKL1       °C        0.5
1  CC(C)(C)OC(=O)Nc1ccc(CNc2nccc(Nc3cc(C(=O)OC(C)(C)C)[nH]n3)n2)cc1 [43d]         ΔTm CDKL1       °C        2.1
2  COC(=O)c1cc(Nc2ccnc(NCCOCCNC(=O)OC(C)(C)C)n2)[nH]n1 [21d]         ΔTm CDKL1       °C        0.1

Q: Please state recorded ΔTm CDKL1 (tested on CDKL1 (Homo sapiens)) of N#CCc1ccc(Nc2nccc(Nc3cc(C4CC4)[nH]n3)n2)cc1 [compound 1, reference compound]
Ans: 6.8

Q: What about this compound? CC(C)OC(=O)c1cc(Nc2ccnc(NCc3ccc(NC(=O)OC(C)(C)C)cc3)n2)n[nH]1 [42d]
Ans: 1.7

###

target: OSR1 (Homo sapiens); construct: purchased in-house DSF panel (SGC Frankfurt); assay: DSF; assay type: binding
Sequence (O95747 1-303): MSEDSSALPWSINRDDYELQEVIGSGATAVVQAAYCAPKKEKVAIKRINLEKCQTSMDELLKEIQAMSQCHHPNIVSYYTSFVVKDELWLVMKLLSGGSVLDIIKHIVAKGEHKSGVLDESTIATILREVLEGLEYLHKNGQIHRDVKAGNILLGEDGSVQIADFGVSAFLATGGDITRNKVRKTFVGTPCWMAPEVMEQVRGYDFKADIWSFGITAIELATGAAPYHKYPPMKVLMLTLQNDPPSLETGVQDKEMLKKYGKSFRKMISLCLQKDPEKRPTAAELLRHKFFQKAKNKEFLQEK
Each item that follows carries a reported ΔTm OSR1.
Respond numerically; units are °C and should not be typed.

In [3]: df
Out[3]:
                                   compound  recordedendpoint  testvalue
0  CC(C)OC(=O)c1cc(Nc2ccnc(NCc3ccc(NC(=O)OC(C)(C)C)cc3)n2)n[nH]1 [42d]          ΔTm OSR1       -0.8

Q: Form: Entry = CC(C)(C)OC(=O)Nc1ccc(CNc2nccc(Nc3cc(C(=O)OC(C)(C)C)[nH]n3)n2)cc1 [43d] | System = OSR1 (Homo sapiens) | ΔTm OSR1 = ____
Ans: -0.4

Q: Note, next up: COC(=O)c1cc(Nc2ccnc(NCc3ccc(NC(=O)OC(C)(C)C)cc3)n2)[nH]n1 [21i]
Ans: 0.6

Q: Same lookup for CN[C@@H]1C[C@H]2O[C@@](C)([C@@H]1OC)n1c3ccccc3c3c4c(c5c6ccccc6n2c5c31)C(=O)NC4 [staurosporine, reference compound] , please.
Ans: 7.7

Q: One more compound: N#CCc1ccc(Nc2nccc(Nc3cc(C4CC4)[nH]n3)n2)cc1 [compound 1, reference compound]
Ans: 5.6

Q: Next compound: COC(=O)c1cc(Nc2ccnc(NCCOCCNC(=O)OC(C)(C)C)n2)[nH]n1 [21d]
Ans: 0.3

Values from paper PMC9736855
